src = patent US20260184707A1

TGT: Human complement C1s enzyme (Homo sapiens, UniProt P09871)
Construct: purified from human serum, Complement Technology, Inc; purchased Complement Technology, Inc; host or cells: human serum (plasma-derived native protein)
Sequence (P09871 438-688 limits assumed): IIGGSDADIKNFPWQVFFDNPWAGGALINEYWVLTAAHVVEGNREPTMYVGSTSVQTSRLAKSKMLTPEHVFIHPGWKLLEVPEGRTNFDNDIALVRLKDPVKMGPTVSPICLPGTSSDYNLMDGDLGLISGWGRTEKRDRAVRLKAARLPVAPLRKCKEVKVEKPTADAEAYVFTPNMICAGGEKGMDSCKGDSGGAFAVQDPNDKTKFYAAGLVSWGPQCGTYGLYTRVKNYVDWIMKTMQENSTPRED
Sequence (P09871 16-437 partner limits assumed): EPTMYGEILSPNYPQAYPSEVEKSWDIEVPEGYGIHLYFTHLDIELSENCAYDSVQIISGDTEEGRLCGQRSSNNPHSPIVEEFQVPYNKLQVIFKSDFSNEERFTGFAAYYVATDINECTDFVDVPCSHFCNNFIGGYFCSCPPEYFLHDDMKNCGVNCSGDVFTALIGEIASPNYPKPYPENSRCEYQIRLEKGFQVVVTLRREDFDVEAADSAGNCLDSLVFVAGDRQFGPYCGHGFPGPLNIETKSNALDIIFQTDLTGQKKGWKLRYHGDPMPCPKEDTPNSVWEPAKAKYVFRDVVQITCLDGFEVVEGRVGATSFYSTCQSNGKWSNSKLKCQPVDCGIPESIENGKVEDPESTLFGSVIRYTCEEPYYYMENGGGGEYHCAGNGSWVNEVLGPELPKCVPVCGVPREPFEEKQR
PROCEDURE_DETAILS: Human C1s enzyme assay
Assay type: biochemical
MEASUREMENT_PARAMETERS: human complement C1s enzyme 1.16 nM, substrate Z-L-Lys-SBzl, A405; read-out: IC50 (Stars)
pIC50: −log10 of the molar value.
ENDPOINT: pIC50

Before answering, review these 3 worked examples.
- COMPOUND_STRING: "Cc1ccccc1-c1ncc(N[C@H](C)c2ccc3oc4ccccc4c3c2)c(=O)n1CC(=O)NCc1cc2cnccc2[nH]1"
  TGT: "Human complement C1s enzyme (Homo sapiens, UniProt P09871)"
  TEST_RESULT: "< 6.00"
- COMPOUND_STRING: "C[C@@H](Nc1cnc(-c2cccs2)n(CC(=O)NCc2cc3cnccc3[nH]2)c1=O)c1ccc2oc3ccccc3c2c1"
  TGT: "Human complement C1s enzyme (Homo sapiens, UniProt P09871)"
  TEST_RESULT: "> 7.00"
- COMPOUND_STRING: "O=C(Cn1c(-c2ccccc2)ncc(NCCCc2ccc(OC(F)(F)F)cc2)c1=O)NCc1cc2cnccc2[nH]1"
  TGT: "Human complement C1s enzyme (Homo sapiens, UniProt P09871)"
  TEST_RESULT: "> 7.00"

The record that follows has no pIC50 shown yet.
compound "O=C(Cn1c(-c2ccccc2F)ncc(N[C@H](CO)c2ccc3oc4ccccc4c3c2)c1=O)NCc1cc2cnccc2[nH]1" , pIC50 observed: > 7.00

----------
TGT: Human complement C1s enzyme (Homo sapiens, UniProt P09871)
Construct: purified from human serum, Complement Technology, Inc
Sequence (P09871 438-688 limits assumed): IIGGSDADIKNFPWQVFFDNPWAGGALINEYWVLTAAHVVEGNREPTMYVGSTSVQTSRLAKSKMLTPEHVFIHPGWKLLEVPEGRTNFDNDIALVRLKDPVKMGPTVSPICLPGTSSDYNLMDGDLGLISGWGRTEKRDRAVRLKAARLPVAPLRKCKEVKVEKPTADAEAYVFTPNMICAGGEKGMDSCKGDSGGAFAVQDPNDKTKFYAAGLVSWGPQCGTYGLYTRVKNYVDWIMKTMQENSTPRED
Sequence (P09871 16-437 partner limits assumed): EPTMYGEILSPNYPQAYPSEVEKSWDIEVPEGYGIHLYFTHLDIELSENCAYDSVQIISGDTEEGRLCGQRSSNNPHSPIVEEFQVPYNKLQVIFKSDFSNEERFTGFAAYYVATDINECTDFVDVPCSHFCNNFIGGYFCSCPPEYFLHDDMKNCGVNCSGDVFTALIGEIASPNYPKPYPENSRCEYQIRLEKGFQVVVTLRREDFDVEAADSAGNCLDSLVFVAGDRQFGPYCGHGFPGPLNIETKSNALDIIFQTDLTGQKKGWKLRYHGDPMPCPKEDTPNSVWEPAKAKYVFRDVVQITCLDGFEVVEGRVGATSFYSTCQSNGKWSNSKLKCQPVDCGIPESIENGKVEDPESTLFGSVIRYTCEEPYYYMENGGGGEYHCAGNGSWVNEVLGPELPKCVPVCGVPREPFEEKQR
PROCEDURE_DETAILS: Human C1s enzyme assay
MEASUREMENT_PARAMETERS: human complement C1s enzyme 1.16 nM, substrate Z-L-Lys-SBzl, A405; read-out: IC50 (Stars)
ENDPOINT: IC50

Before answering, review these 5 worked examples.
- COMPOUND: "O=C(Cn1c(-c2ccc(OC3COC3)cc2)ncc(NCc2ccc3oc4ccccc4c3c2)c1=O)NCc1cc2cnccc2[nH]1 [Compound 130]"
  TGT: "Human complement C1s enzyme (Homo sapiens, UniProt P09871)"
  IC50: "< 100 nM"
- COMPOUND: "C[C@@H](Nc1cnc(OC2CC2)n(CC(=O)NCc2cc3cnccc3[nH]2)c1=O)c1ccc2oc3ccccc3c2c1 [Compound 343]"
  TGT: "Human complement C1s enzyme (Homo sapiens, UniProt P09871)"
  IC50: "100 to 1000 nM"
- COMPOUND: "C[C@@H](Nc1cnc(N2CCC(O)CC2)n(CC(=O)NCc2cc3cnccc3[nH]2)c1=O)c1ccc2oc3ccccc3c2c1 [Compound 380]"
  TGT: "Human complement C1s enzyme (Homo sapiens, UniProt P09871)"
  IC50: "100 to 1000 nM"
- COMPOUND: "COc1ccc(-c2ncc(NCc3ccc4oc5ccccc5c4c3)c(=O)n2CC(=O)NCc2cc3cnccc3[nH]2)cc1 [Compound 119]"
  TGT: "Human complement C1s enzyme (Homo sapiens, UniProt P09871)"
  IC50: "< 100 nM"
- COMPOUND: "O=C(Cn1c(-c2ccccc2)ncc(NCc2ccc3oc4ccccc4c3c2)c1=O)NCc1cc2cnccn2c1 [Compound 144]"
  TGT: "Human complement C1s enzyme (Homo sapiens, UniProt P09871)"
  IC50: "> 1000 nM"

// for each compound in input: emit IC50
1. COc1ccc(-c2cc(C(=O)Nc3cnc(-c4ccccc4)n(CC(=O)NCc4cc5cnccc5[nH]4)c3=O)on2)cc1 [Compound 109]
2. O=C(Cn1c(N2CC(F)C2)ncc(NCc2ccc3oc4ccccc4c3c2)c1=O)NCc1cc2cnccc2[nH]1 [Compound 270]
3. C[C@@H](Nc1cnc(N2CCCC(F)(F)C2)n(CC(=O)NCc2cc3cnccc3[nH]2)c1=O)c1ccc2oc3ccccc3c2c1 [Compound 399]
4. O=C(Cn1c(-c2ccccc2)ncc(NC(=O)c2ccc(-c3ccc(F)cc3)cc2)c1=O)NCc1cc2cnccc2[nH]1 [Compound 99]
5. C[C@@H](Nc1cnc(-c2nccs2)n(CC(=O)NCc2cc3cnccc3[nH]2)c1=O)c1ccc2oc3ccccc3c2c1 [Compound 340]
6. O=C(Cn1c(-c2ccccc2)ncc(NC(=O)c2ccc(-c3ccccc3)cc2F)c1=O)NCc1cc2cnccc2[nH]1 [Compound 166]

["< 100 nM", "< 100 nM", "< 100 nM", "< 100 nM", "100 to 1000 nM", "< 100 nM"]

// for each compound in input: emit IC50
1. O=C(Cn1c(-c2ccccc2)ncc(NC(=O)c2coc(-c3cccc(F)c3)n2)c1=O)NCc1cc2cnccc2[nH]1 [Compound 205]
2. O=C(Cn1c(-c2ccccc2)ncc(NC(=O)c2ccc(Oc3ccc(F)cc3F)cc2)c1=O)NCc1cc2cnccc2[nH]1 [Compound 55]

1: < 100 nM; 2: < 100 nM

compound O=C(Cn1c(-c2ccccc2)cnc(NCCCc2ccccc2)c1=O)N[C@@H](CO)c1cc2cnccc2[nH]1 [Compound 14] , IC50 observed: > 1000 nM

----------
TGT: Human complement C1s enzyme (Homo sapiens, UniProt P09871)
Construct: purified from human serum, Complement Technology, Inc; purchased Complement Technology, Inc; host or cells: human serum (plasma-derived native protein)
PROCEDURE_DETAILS: Human C1s enzyme assay
Format: biochemical
MEASUREMENT_PARAMETERS: human complement C1s enzyme 1.16 nM, substrate Z-L-Lys-SBzl, A405; read-out: IC50 (Stars)
ENDPOINT: IC50

// for each compound in input: emit IC50
1. O=C(Cn1c(-c2ccccc2)ncc(NCc2ccc3oc4ccccc4c3c2)c1=O)NCc1cc2cnccc2[nH]1
2. C[C@@H](Nc1ncc(N2CCC(O)CC2)n(CC(=O)NCc2cc3cnccc3[nH]2)c1=O)c1ccc2oc3ccccc3c2c1
3. C[C@@H](Nc1cnc(N2CC3CCC2C3)n(CC(=O)NCc2cc3cnccc3[nH]2)c1=O)c1ccc2oc3ccccc3c2c1 (stereo partly shown)
4. CO[C@@H]1CO[C@H]2[C@@H]1OC[C@H]2OCCCNc1cnc(-c2ccccc2)n(CC(=O)NCc2cc3cnccc3[nH]2)c1=O
5. C[C@@H](Nc1cnc(-c2ccccc2F)n(CC(=O)NCc2cc3cnccc3[nH]2)c1=O)c1ccc2oc3ccccc3c2c1

< 100 nM
< 100 nM
> 1000 nM
< 100 nM
< 100 nM

// for each compound in input: emit IC50
1. C[C@@H](Nc1cnc(-c2ccccc2F)n(CC(=O)NCc2cc3cnccc3[nH]2)c1=O)c1cc2c(cc1F)oc1ccccc12
2. O=C(Cn1c(-c2ccccc2)ncc(NC(=O)c2ccc(Oc3nccs3)cc2)c1=O)NCc1cc2cnccc2[nH]1
3. O=C(Cn1c(-c2ccc(OC3COC3)cc2)ncc(NCc2ccc3c(c2)-c2ccccc2C3(F)F)c1=O)NCc1cc2cnccc2[nH]1
4. N#Cc1ccc(CCNc2cnc(-c3ccccc3)n(CC(=O)NCc3cc4cnccc4[nH]3)c2=O)cc1

< 100 nM
< 100 nM
< 100 nM
< 100 nM
